Entry source: ChEMBL document CHEMBL1129944

- SYSTEM_NAME: Serotonin 1a (5-HT1a) receptor/Adrenergic receptor alpha-1 (Rattus norvegicus) (UniProt P15823+P23944+P43140+P19327)
- ASSAY_EXPLANATION: Selectivity for alpha-1-adrenergic receptor to that of 5-HT1A receptor.
- Type: protein assay
Binary label based on Selectivity with cut-off 2: below gives yes (1), not below gives no (0).

1. COc1ccccc1N1CCN(CCCSc2nc3ccccc3c(=O)n2N)CC1
no (0)
2. Oc1nc(SCCCN2CCN(c3cccc4ccccc34)CC2)nc2sc3c(c12)CCCC3
yes (1)
3. COc1ccccc1N1CCN(CCCOc2nc(SC)nc3sc4c(c23)CCCC4)CC1
yes (1)
4. Cc1sc2nc(SCCCN3CCN(c4ncccn4)CC3)n(C)c(=O)c2c1C
no (0)
5. COc1ccccc1N1CCN(CCCSc2nc(O)c3cc(-c4ccccc4)sc3n2)CC1
yes (1)
6. COc1ccccc1N1CCN(CCCSc2nc3sc(C)c(C)c3c(=O)n2C)CC1
no (0)

Next compound, please.
Dear reviewer, please state whether `Cc1sc2nc(SCCCN3CCN(c4ncccn4)CC3)nc(O)c2c1C` has Selectivity strictly beneath 2.
no (0)
